Target: Taq DNA polymerase (Thermus aquaticus, UniProt P19821 P19821:1-832)
Sequence (P19821 whole entry, one chain of several): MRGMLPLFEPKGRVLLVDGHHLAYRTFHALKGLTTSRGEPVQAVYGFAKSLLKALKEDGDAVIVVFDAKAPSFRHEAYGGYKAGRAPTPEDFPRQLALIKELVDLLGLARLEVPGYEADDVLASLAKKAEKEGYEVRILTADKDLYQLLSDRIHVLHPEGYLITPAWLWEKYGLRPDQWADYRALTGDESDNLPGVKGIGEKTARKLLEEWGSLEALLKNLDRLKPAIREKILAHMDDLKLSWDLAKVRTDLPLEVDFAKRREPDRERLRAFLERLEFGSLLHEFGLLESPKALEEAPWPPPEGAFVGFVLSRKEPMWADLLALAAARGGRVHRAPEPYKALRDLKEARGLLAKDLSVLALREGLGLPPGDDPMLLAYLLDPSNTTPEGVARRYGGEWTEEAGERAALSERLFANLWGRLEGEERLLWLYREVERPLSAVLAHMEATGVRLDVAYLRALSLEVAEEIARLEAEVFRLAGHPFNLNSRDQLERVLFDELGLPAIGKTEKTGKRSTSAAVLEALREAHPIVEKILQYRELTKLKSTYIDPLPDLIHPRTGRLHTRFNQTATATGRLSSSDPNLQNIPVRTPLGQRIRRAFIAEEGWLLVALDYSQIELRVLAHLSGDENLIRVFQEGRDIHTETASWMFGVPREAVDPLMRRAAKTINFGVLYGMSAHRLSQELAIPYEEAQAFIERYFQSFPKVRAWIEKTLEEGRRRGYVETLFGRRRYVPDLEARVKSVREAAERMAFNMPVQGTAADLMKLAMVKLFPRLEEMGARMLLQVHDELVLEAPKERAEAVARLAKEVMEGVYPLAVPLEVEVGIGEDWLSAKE
Experiment: FP filter; Tris buffer 55C; 5 pM at 40C; Tricine 9.4 (40C), 116 (55C) pM; IT50 52C
Details: tags: rTaq, 94 kDa, Roche Molecular Systems; label: end-labeled
quantityKind: Kd

>>> measvalue("ligand 28 (TQH28) (ssDNA) DNA: TTCTCGGTTGGTCTCTGGCGGAGCAGGAGCAAGAATCATTCTTAGCGTTTTGATTCTTGTGTATGATTCGCTTTTCCC")
"0.0135 nM"
